# system_tested: bacterial NAD synthetase enzyme (Bacillus subtilis, UniProt P08164)
# protocol_details: biochemical
# Assay type: biochemical
Listed next: entries and their corresponding inhibition at 100 µM.
Kindly provide the numeric value in % only, without the unit symbol.

Illustrative cases are given below, each with its answer.
C[N+](C)(C)c1ccc(CC(=O)OCCCCCn2ccc3cc(OCc4ccccc4)ccc32)cc1 91.3
COC(=O)c1cc2cc(OCc3ccccc3)ccc2n1CCCCCCCCOC(=O)c1ccc[n+](C)c1 87.6
COC(=O)c1cc2ccccc2n1CCCCCCCCCOC(=O)c1ccc[n+](C)c1 88.2

Query: Which inhibition at 100 µM value belongs to `CC(=O)c1ccc2[nH]c(CCCCCCCCOC(=O)c3ccc([N+](C)(C)C)cc3)cc2c1` ?
Result: 91.1

Query: For the molecule shown here, `C[n+]1cccc(C(=O)OCCCCCn2ccc3cc(OCc4ccccc4)ccc32)c1` , give the reported inhibition at 100 µM.
Result: 91.2

Query: Can you share its inhibition at 100 µM? I mean this molecule: `C[n+]1cccc(C(=O)OCCCCn2ccc3cc(OCc4ccccc4)ccc32)c1`
Result: 90

###

# system_tested: UniProt:P08164
# protocol_details: biochemical
# Type: biochemical
# measurement_context: compound at 0.2 mM (Table 312A)
# % Inhibition per record follows
Reply numerically in %, unit not repeated.

c1ccc(C(c2ccccc2)(c2ccccc2)c2ccc3[nH]c(CCCCCC[n+]4ccc5ccccc5c4)cc3c2)cc1 30.89
O=[N+]([O-])c1ccc2[nH]c(CCCCC[n+]3cccc4ccccc43)cc2c1 12.69

Attention now shifts to the item below.
Query: What measured % Inhibition goes with `O=[N+]([O-])c1cc([N+](=O)[O-])c2[nH]c(CCCCCCC[n+]3ccc4ccccc4c3)cc2c1` ?
Result: 42.77

###

# system_tested: bacterial NAD synthetase enzyme (Bacillus subtilis)
# protocol_details: biochemical
# Type: biochemical
# measurement_context: compound at 0.2 mM (Table 312A)
Threshold check on % Inhibition: strictly below 6% is Yes; on or above 6% is No.

For orientation, consider the following solved cases.
compound	system_tested	classification
O=[N+]([O-])c1ccc2c(ccn2CCCCCCCC[n+]2ccccc2)c1	bacterial NAD synthetase enzyme (Bacillus subtilis)	Yes
O=[N+]([O-])c1ccc2c(ccn2CCCCCCO)c1 [Compound 862, 6-[N-(5-nitroindolyl)]hexan-1-ol]	bacterial NAD synthetase enzyme (Bacillus subtilis)	No
Fc1ccc2[nH]c(CCCCC[n+]3cccc4ccccc43)cc2c1	bacterial NAD synthetase enzyme (Bacillus subtilis)	No

Shifting focus to the compound that follows.
Query: Does the reported % Inhibition of the following compound sit strictly below 6%? `COC(=O)c1ccc2[nH]c(CCCCCCCC[n+]3ccccc3)cc2c1`
Result: Yes

###

Quick list: % Inhibition per entry.
# system_tested: bacterial NAD synthetase enzyme (Bacillus subtilis)
# protocol_details: biochemical
# Assay type: biochemical
# measurement_context: compound at 0.2 mM (Table 312A)
Reply numerically in %, unit not repeated.

Please review the entries below; each comes with its answer.
c1ccc(C(c2ccccc2)(c2ccccc2)c2ccc3[nH]c(CCCCC[n+]4cccc5ccccc54)cc3c2)cc1 13.78
CC(C)c1ccc2[nH]c(CCCCOC(=O)c3ccccc3-c3ccccc3)cc2c1 10.72
O=[N+]([O-])c1ccc2[nH]c(CCC[n+]3cccc4ccccc43)cc2c1 9.45
CC(C)c1ccc2[nH]c(CCCCCCC[n+]3ccc4ccccc4c3)cc2c1 40.95
O=[N+]([O-])c1cc([N+](=O)[O-])c2[nH]c(CCCC[n+]3ccc4ccccc4c3)cc2c1 18.12

Query: Can you look up the measured % Inhibition of `CC(=O)c1ccc2[nH]c(CCCCCCCOC(=O)c3cccnc3)cc2c1` for me?
Result: 1.81

Query: Which % Inhibition value is on record for `c1ccc(C(c2ccccc2)(c2ccccc2)c2ccc3[nH]c(CCCC[n+]4cccc5ccccc54)cc3c2)cc1` ?
Result: 5.43

Query: // lookup % Inhibition for `COC(=O)c1ccc2[nH]c(CCCCCC[n+]3cccc4ccccc43)cc2c1`
Result: 5.87

Query: Name the recorded % Inhibition for `Cc1ccc2[nH]c(CCCCCCC[n+]3ccc4ccccc4c3)cc2c1` .
Result: 22.32

###

# system_tested: bacterial NAD synthetase enzyme (Bacillus subtilis, UniProt P08164)
# Sequence (P08164 2-272 limits assumed): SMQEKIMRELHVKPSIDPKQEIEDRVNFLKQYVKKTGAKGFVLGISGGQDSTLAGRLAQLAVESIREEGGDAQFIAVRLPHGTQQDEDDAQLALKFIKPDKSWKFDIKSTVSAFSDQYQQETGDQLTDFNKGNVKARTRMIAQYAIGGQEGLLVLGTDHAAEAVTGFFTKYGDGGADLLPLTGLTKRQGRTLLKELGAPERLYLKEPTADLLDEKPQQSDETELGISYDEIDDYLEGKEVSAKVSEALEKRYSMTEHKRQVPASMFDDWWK
# protocol_details: biochemical
# Type: biochemical
# measurement_context: compound at 0.2 mM (Table 312A)
property: % Inhibition (%)
Only the number, expressed in %, is required.

c1ccc(C(c2ccccc2)(c2ccccc2)c2ccc3[nH]c(CCCCCCC[n+]4cccc5ccccc54)cc3c2)cc1 2.92
O=C(OCCCCCCCCc1cc2cc(Oc3ccccc3)ccc2[nH]1)c1cccnc1 8.39
c1ccc(-c2ccc3[nH]c(CCCCC[n+]4cccc5ccccc54)cc3c2)cc1 5.36
FC(F)(F)c1ccc2[nH]c(CCCCCCC[n+]3ccccc3)cc2c1 29.20
O=C(c1ccccc1)c1ccc2[nH]c(CCCCC[n+]3ccc4ccccc4c3)cc2c1 31.02
FC(F)(F)c1ccc2[nH]c(CCCCCC[n+]3ccc4ccccc4c3)cc2c1 12.57
O=[N+]([O-])c1ccc2[nH]c(CCCCCC[n+]3ccc4ccccc4c3)cc2c1 14.08
COC(=O)C=Cc1cn(CCCCC[n+]2cccc(C(=O)OC)c2)c2ccccc12 11.23
Cc1ccc2[nH]c(CCCCCC[n+]3cccc4ccccc43)cc2c1 6.07
O=[N+]([O-])c1cc([N+](=O)[O-])c2[nH]c(CCCCCCC[n+]3ccccc3)cc2c1 38.29

Query: What is its % Inhibition for bacterial NAD synthetase enzyme (Bacillus subtilis, UniProt P08164)? Entry: `O=C(c1ccccc1)c1ccc2[nH]c(CCCC[n+]3ccc4ccccc4c3)cc2c1`
Result: 17.47

Query: // map `c1ccc2c[n+](CCCc3cc4ccccc4[nH]3)ccc2c1` to recorded % Inhibition (system: bacterial NAD synthetase enzyme (Bacillus subtilis, UniProt P08164))
Result: 47.31

Query: What measured % Inhibition is associated with `O=C(OCCCCCCCCc1cc2cc(C(F)(F)F)ccc2[nH]1)c1ccccc1-c1ccccc1` on bacterial NAD synthetase enzyme (Bacillus subtilis, UniProt P08164)?
Result: 8.32

Query: Item `FC(F)(F)c1ccc2[nH]c(CCC[n+]3ccccc3)cc2c1` with bacterial NAD synthetase enzyme (Bacillus subtilis, UniProt P08164) - % Inhibition?
Result: 3.46

Query: Missing value: % Inhibition, bacterial NAD synthetase enzyme (Bacillus subtilis, UniProt P08164), entry `c1ccc2c[n+](CCCCCCc3cc4ccccc4[nH]3)ccc2c1` . Fill in?
Result: 4.98

Query: Look up % Inhibition with bacterial NAD synthetase enzyme (Bacillus subtilis, UniProt P08164) for this compound: `CC(=O)c1ccc2[nH]c(CCCCCCC[n+]3cccc4ccccc43)cc2c1`
Result: 9.76

Query: What reported % Inhibition corresponds to `CCCCc1ccc2[nH]c(CCCCCC[n+]3ccc4ccccc4c3)cc2c1` on bacterial NAD synthetase enzyme (Bacillus subtilis, UniProt P08164)?
Result: 36.55

Query: Write down the reported % Inhibition of `O=[N+]([O-])c1ccc2[nH]c(CCCC[n+]3ccccc3)cc2c1` , test system: bacterial NAD synthetase enzyme (Bacillus subtilis, UniProt P08164).
Result: 12.59

Query: Look up % Inhibition with bacterial NAD synthetase enzyme (Bacillus subtilis, UniProt P08164) for this compound: `COC(=O)c1ccc2[nH]c(CCCCC[n+]3ccccc3)cc2c1`
Result: 10.09

Query: Lab note: need % Inhibition with bacterial NAD synthetase enzyme (Bacillus subtilis, UniProt P08164) for entry `O=[N+]([O-])c1ccc2[nH]c(CCCCCCC[n+]3ccc4ccccc4c3)cc2c1` , please look it up.
Result: 28.18

Query: Request - read-out % Inhibition | tested on bacterial NAD synthetase enzyme (Bacillus subtilis, UniProt P08164) | compound `CC(=O)c1ccc2[nH]c(CCCCC[n+]3cccc4ccccc43)cc2c1`
Result: 17.49

Query: What reported % Inhibition corresponds to `Cc1ccc2[nH]c(CCCCC[n+]3ccccc3)cc2c1` on bacterial NAD synthetase enzyme (Bacillus subtilis, UniProt P08164)?
Result: 16.79

Query: Notebook: pull reported % Inhibition for bacterial NAD synthetase enzyme (Bacillus subtilis, UniProt P08164), entry `Fc1cc(F)c2[nH]c(CCC[n+]3ccc4ccccc4c3)cc2c1`
Result: 29.95

Query: Which % Inhibition is reported with bacterial NAD synthetase enzyme (Bacillus subtilis, UniProt P08164) for this entry: `CN(C)c1ccc(C(=O)OCCCCCCCc2cc3cc(Oc4ccccc4)ccc3[nH]2)cc1` ?
Result: 19.53
